Data provenance: ChEMBL document CHEMBL5046218

Collected Ki values appear next to each entry.
Target: D(4) dopamine receptor (Homo sapiens)
Sequence (P21917 whole entry): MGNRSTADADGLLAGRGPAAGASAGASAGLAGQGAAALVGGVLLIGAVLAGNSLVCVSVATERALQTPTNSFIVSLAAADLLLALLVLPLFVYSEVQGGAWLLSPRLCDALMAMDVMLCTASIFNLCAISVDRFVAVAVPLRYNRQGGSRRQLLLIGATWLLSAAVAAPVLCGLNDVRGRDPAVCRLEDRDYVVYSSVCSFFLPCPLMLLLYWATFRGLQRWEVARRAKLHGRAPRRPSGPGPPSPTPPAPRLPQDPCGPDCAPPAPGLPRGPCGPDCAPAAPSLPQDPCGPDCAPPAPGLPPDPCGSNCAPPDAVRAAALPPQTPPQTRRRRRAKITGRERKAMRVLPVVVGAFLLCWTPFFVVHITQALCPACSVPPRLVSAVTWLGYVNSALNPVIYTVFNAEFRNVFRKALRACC
measurement type: Ki

>>> print(df.to_string())
                                   compound  measurement_type    result
0  CCOC(=O)/C=C1\[C@@H]2CCC[C@@]1(c1cccc(O)c1)CCN2                Ki  > 100 µM
1  CN(C)C(=O)C(CCNCCc1ccccc1)(c1ccccc1)c1ccccc1                Ki   12.6 µM
2  Oc1cccc([C@@]23CCC[C@@H]([C@H]2O)N(C/C=C/c2ccccc2)CC3)c1                Ki   36.9 µM
3  O=C(NCCCCN1CC[C@]2(c3cccc(O)c3)CCC[C@H]1[C@H]2O)c1cc2ccccc2[nH]1                Ki   3.81 µM
4  CN(C)C(=O)C(CCN1CCN(c2cccc(Cl)c2Cl)CC1)(c1ccccc1)c1ccccc1                Ki  0.102 µM
5     N#CC(CCNCCc1ccccc1)(c1ccccc1)c1ccccc1                Ki   13.9 µM
6  CCc1cc(Cl)c(OC)c(C(=O)NC[C@@H]2CCCN2CCCCNCCC(C(=O)N(C)C)(c2ccccc2)c2ccccc2)c1O                Ki   6.61 µM
7  CCC(=O)C(CC(C)N(C)C)(c1ccccc1)c1ccccc1 (stereo not given)                Ki   26.2 µM
8           CN(C)CCC(C#N)(c1ccccc1)c1ccccc1                Ki   23.2 µM
9  CCOC(=O)/C=C1\[C@@H]2CCC[C@@]1(c1cccc(O)c1)CCN2CC1CC1CCNC(=O)c1cc2ccccc2[nH]1 (stereo not given in full)                Ki   23.4 µM

====

Biological target: D(3) dopamine receptor (Homo sapiens)
Sequence (P35462 whole entry): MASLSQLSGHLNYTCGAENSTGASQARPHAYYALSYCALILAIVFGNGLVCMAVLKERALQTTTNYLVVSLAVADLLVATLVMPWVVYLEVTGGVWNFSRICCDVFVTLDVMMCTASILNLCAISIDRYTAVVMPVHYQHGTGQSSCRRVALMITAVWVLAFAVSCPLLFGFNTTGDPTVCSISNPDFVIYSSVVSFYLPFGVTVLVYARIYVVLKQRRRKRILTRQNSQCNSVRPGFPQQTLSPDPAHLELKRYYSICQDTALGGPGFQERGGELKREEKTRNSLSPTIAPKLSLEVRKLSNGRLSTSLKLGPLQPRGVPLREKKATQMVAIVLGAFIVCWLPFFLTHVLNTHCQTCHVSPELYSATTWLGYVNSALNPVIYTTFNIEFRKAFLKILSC
Assay: Agonist activity at human dopamine D3 receptor expressed in HEK293T cells assessed as GalphaoA activation preincubated for 5 mins with coelenterazine followed by compound addition and measured after 10 mins by BRET assay
pEC50: −log10 of the molar value.
measurement type: pEC50

>>> df
                                   molecule  measurement_type  number
0  CCOC(=O)/C=C1\[C@@H]2CCC[C@@]1(c1cccc(O)c1)CCN2C[C@H]1C[C@@H]1CCNC(=O)c1cc2ccccc2[nH]1 (relative stereo)             pEC50    5.83
